Molecular target: T1, extracellular domain (ECD) of recombinant human Sortilin with a C-terminal HIS tag (ECD-huSortilin-HIS) (human, UniProt Q99523 78-755)
T1 construct: Bought (R&D Systems); also called human sortilin-ECD; not shown: C-terminal HIS tag
T1 sequence: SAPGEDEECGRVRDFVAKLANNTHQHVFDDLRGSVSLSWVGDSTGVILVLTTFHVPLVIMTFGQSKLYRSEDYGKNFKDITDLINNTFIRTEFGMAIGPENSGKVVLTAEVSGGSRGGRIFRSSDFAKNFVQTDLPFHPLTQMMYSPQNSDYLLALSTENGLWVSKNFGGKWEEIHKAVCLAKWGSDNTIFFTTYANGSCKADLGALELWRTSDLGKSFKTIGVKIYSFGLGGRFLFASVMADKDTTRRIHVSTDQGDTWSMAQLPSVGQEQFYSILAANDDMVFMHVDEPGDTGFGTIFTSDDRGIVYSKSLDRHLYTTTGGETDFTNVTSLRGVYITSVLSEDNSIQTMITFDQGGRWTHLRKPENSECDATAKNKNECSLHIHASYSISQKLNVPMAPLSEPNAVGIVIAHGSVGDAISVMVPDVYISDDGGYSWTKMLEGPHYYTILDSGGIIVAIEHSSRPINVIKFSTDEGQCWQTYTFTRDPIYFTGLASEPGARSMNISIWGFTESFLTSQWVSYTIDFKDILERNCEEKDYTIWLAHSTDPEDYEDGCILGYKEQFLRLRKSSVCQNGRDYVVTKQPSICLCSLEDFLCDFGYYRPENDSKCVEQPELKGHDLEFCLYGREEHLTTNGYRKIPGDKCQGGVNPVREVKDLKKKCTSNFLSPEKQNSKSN
Test: ELISA, ECD-huSortilin-HIS coated at 1 ug/mL, goat anti-human IgG-HRP, chemiluminescence
observation-type: EC50 (µg/mL)

binder	quantitative-result
humanized 11M14 hu11M14VHv2b/hu11M14VLv2b (antibody, V domains shown, Human IgG; also called 11M14H2bL2b) VH: EVQLVESGGGLVQPGGSLRLSCAASGFTFNIYGMSWVRQAPGKGLEWVATISSGGIYTYYPDILKGRFTISRDNAKNSLYLQMNSGRAEDTAVYYCARHPGGAMDYWGQGTLVTVSS VL: DIQMTQSPSSLSASVGDRVTITCRVSENIYSNLAWYQQKPGKSPKLLVYAATNLADGVPSRFSGSGSGTDYTLTISSLQPEDFATYYCQHFWGTPPWTFGQGTKLEIK	0.07
humanized 8H24 hu8H24VHv1/hu8H24VLv2 (antibody, V domains shown, Human IgG; also called 8H24H1L2; hu8H24H1L2) VH: QAQLVQSGAEVKKPGSSVKVSCKASGYTFTSYSMHWVRQAPGQGLEWIGAIYPGNDATSYNQKFKGRATLTVDKSTSTAYMELSSLRSEDTAVYFCAREGYYGSSFEAWFASWGQGTTVTVSS VL: DVVMTQTPSSLPVTPGEPASISCRSSQSIVHSNGNTYLEWYLQKPGQSPQLLIYKVSNRFSGVPDRFSGSGSGTDFTLTISRVEAEDVGVYYCFQGSHVLPTFGGGTKVEIK	0.1
humanized 5E20 hu5E20VHv4/hu5E20VLv4 (antibody, V domains shown, Human IgG; also called 5E20H4L4) VH: EVQLVESGGGLVQPGGSLRLSCAASGFTFSTYGMSWVRQAPDKRLEWVAIISSGGSYTYYSDTVKGRFTISRDNSKNSLYLQMNSLRAEDTAVYYCSRSSSHWYFDVWGQGTLVTVSS VL: DIQMTQSPSSVSASVGDRVTITCHASQGISSNIGWLQQKPGKAFKGLIYHGTNLKDGVPSRFSGSGSGADFTLTISSLQPEDFADYFCVQYAQFPYTFGQGTKVEKR	0.04

Just for reference, patent US20230235048A1 is where these values come from.
